EXPERIMENTAL PROTOCOL: Peak and trough plasma levels of FIAU and FAU by HPLC
Assay type: in vivo, human
PARTICULARS: human, in vivo, po, 1 mg/kg/day, FIAU peak plasma concentration, mean
VALUE KIND: Cmax at 24 h (ng/mL)
Please state the figure in ng/mL; there is no need to write the unit.

Asked: Dear colleague, I am looking for the recorded Cmax at 24 h of the following compound: `O=c1[nH]c(=O)n([C@@H]2O[C@H](CO)[C@@H](O)[C@@H]2F)cc1I`
Given back: 580

---

EXPERIMENTAL PROTOCOL: Peak and trough plasma levels of FIAU and FAU by HPLC
Format: in vivo, human
PARTICULARS: human, in vivo, po, 1 mg/kg/day, FIAU trough plasma concentration, range maximum
VALUE KIND: concentration at 24 h (ng/mL)
Field: numeric (ng/mL). Do not append units.

Asked: Looking for the measured concentration at 24 h of `O=c1[nH]c(=O)n([C@@H]2O[C@H](CO)[C@@H](O)[C@@H]2F)cc1I` , can you help?
Given back: 130

---

EXPERIMENTAL PROTOCOL: Peak and trough plasma levels of FIAU and FAU by HPLC
Type: in vivo, human
PARTICULARS: human, in vivo, po, 1 mg/kg/day, FIAU trough plasma concentration, mean
VALUE KIND: concentration at 24 h (ng/mL)
Give a bare numeral; the unit ng/mL is implied.

Asked: Name the reported concentration at 24 h value associated with the compound O=c1[nH]c(=O)n([C@@H]2O[C@H](CO)[C@@H](O)[C@@H]2F)cc1I [FIAU]
Given back: 50

---

EXPERIMENTAL PROTOCOL: Peak and trough plasma levels of FIAU and FAU by HPLC
Type: in vivo, human
PARTICULARS: human, in vivo, po, 1 mg/kg/day, FIAU peak plasma value at steady state, average
Source text: Additionally at Baseline, archive plasma samples were taken.
VALUE KIND: Cmax at 2 h

Asked: GET /values?readout=Cmax at 2 h&item= `O=c1[nH]c(=O)n([C@@H]2O[C@H](CO)[C@@H](O)[C@@H]2F)cc1I`
Given back: ~1000 ng/mL
